# Target system: FIH-Gln239 → Ala variant (human)
# Measurement notes: other fluorescence titration
Value type: Kd (µM)
Give the value, in units of µM, as a plain number.

Q: So what does the record say about Kd for DESGLPQLTSYDAEVNAPIQGSRNLLQGEELLRALDQVN [39-mer CTAD peptide (C-terminal activation domain of human HIF1α, HIF1α 788–826, Cys800 → Ala)] ?
A: 100

FYI, the data here is from paper PMC4165446.
